Experiment: chemical genetic growth profiling, strain panel (AID 1159580);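 further: tested at 20 µM; growth read once vehicle control cultures reached saturation at 30 °C; 1 = growth at the plate median or of vehicle wells; lower values mean less growth of the strain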
Conditions: S. cerevisiae deletion strains, growth OD, locus YOR265W, strain rbl2, active compounds read low
Screen size: about 5,500 compounds; about 2,000 (36%) were called active. Inconclusive results (about 18%) are left out. The list shows a part of the results.
Listing of recorded normalized growth by entry.
parameter measured: normalized growth

> print(dat)
                                   compound  parameter.measured  numeric.value
1     CN(C)c1ccc2nc3ccc(=[N+](C)C)cc-3sc2c1   normalized growth           1.04
2  CC1(C)C2CC(=O)[C@]3(C)C(CC[C@@]4(C)[C@H](c5ccoc5)OC(=O)C5OC543)[C@@]2(C)[C@@H](O)C[C@H]1O (some centres not stated)   normalized growth          0.983
3  CC1(C)C(=O)C=C[C@@]2(C)C1C[C@@H](O)[C@]1(C)C2CC[C@@]2(C)[C@H](c3ccoc3)OC(=O)[C@H]3O[C@]321 (some centres not stated)   normalized growth           1.01
4  CC1(C)C=CC(=O)[C@@]2(C)C1CC(=O)[C@]1(C)C2CC[C@@]2(C)[C@H](c3ccoc3)OC(=O)C3OC321 (some centres not stated)   normalized growth              1
5  CC1(C)C(=O)C=C[C@@]2(C)C1CC(=O)[C@]1(C)C2CC[C@@]2(C)[C@H](c3ccoc3)OC(=O)[C@H]3O[C@]321 (some centres not stated)   normalized growth          0.984
6  CC1(C)C2CC(=O)[C@]3(C)C(CC[C@@]4(C)[C@H](c5ccoc5)OC(=O)[C@H]5O[C@]543)[C@@]2(C)C(=O)C[C@H]1O (some centres not stated)   normalized growth           0.99
7  CC(=O)O[C@@H]1CC2C(C)(C)C(=O)C=C[C@]2(C)C2CC[C@@]3(C)[C@H](c4ccoc4)OC(=O)[C@H]4O[C@]43[C@@]21C (some centres not stated)   normalized growth           1.01

###

// normalized growth lookup, one value per entry
Assay: chemical genetic growth profiling, strain panel (AID 1159580);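 further: tested at 20 µM; growth read once vehicle control cultures reached saturation at 30 °C; 1 = growth at the plate median or of vehicle wells; lower values mean less growth of the strain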
Settings: S. cerevisiae deletion strains, growth OD, locus YEL003W, strain gim4, active compounds read low
About 2,000 (36%) of roughly 5,500 compounds were called active. Roughly 18% stayed inconclusive and do not appear here. The list shows a part of the results.
parameter measured: normalized growth

> print(dat)
                                   compound  numeric.value
1  CC(C)[N+](C)(CCC(C(N)=O)(c1ccccc1)c1ccccc1)C(C)C           1.01
2  CC(CC(O)C1OC1(C)C)[C@@H]1CCC2(C)C3=CCC4C(C)(C)C(=O)CCC4(C)C3CC[C@@]12C (stereo not given in full)           1.01
3  CC(C1OC(C)(C)C(O)C1O)[C@@H]1CC[C@]2(C)C3=CCC4C(C)(C)C(=O)CC[C@]4(C)C3CC[C@@]12C (stereo not given in full)          0.937
4  CC(CC(C(N)=O)(c1ccccc1)c1ccccc1)N(C)C (stereo not given)          0.982
5         CCCCCCCCCCCC1=C(O)C(=O)C=C(O)C1=O          0.851

###

Experiment: chemical genetic growth profiling, strain panel (AID 1159580);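 further: tested at 20 µM; growth read once vehicle control cultures reached saturation at 30 °C; 1 = growth at the plate median or of vehicle wells; lower values mean less growth of the strain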
Settings: S. cerevisiae deletion strains, growth OD, locus YAL030W, strain snc1, active compounds read low
About 2,000 (36%) of roughly 5,500 compounds were called active. About 18% were inconclusive and are not listed. The list shows a part of the results.
parameter measured: normalized growth

compound	result
COc1ccc(-c2oc3cc(O[C@H]4O[C@H](CO)[C@@H](O)[C@H](O)[C@H]4O)c(OC)c(O)c3c(=O)c2OC)cc1O	1 (inactive)
O=c1cc(-c2ccc(O)cc2)oc2cc(O[C@@H]3O[C@H](CO)[C@@H](O)[C@H](O)[C@H]3O)cc(O)c12	1.01 (inactive)
O=c1c(O)c(-c2ccc(O)cc2O)oc2cc(O)cc(O)c12	0.99 (inactive)
C[C@@H]1O[C@@H](OC[C@H]2OC(Oc3c(-c4ccc(O)c(O)c4)oc4cc(O)cc(O)c4c3=O)[C@H](O)[C@@H](O)[C@@H]2O)[C@H](O)[C@H](O)[C@H]1O (stereo partly drawn)	0.998 (inactive)
Oc1cc2c(cc1O)C1c3ccc(O)c(O)c3OCC1(O)C2 (stereo not drawn)	1.01 (inactive)
CC(=O)Oc1ccc2c(c1OC(C)=O)OCC1(O)Cc3c(cc(OC(C)=O)c(OC(C)=O)c3OC(C)=O)C21 (stereo not drawn)	1.01 (inactive)
C[C@]12CCC3c4ccc(O)cc4CCC3C1CC[C@@H]2O (stereo partly drawn)	1.01 (inactive)
O=C(Cc1cccs1)NC1C(=O)N2C(C(=O)[O-])=C(C[n+]3ccccc3)CSC12 (stereo not drawn)	0.994 (inactive)
